Tested on: Aphis craccivora
Test: Insecticidal activity against Aphis craccivora (cowpea aphid) infested horsebean plant leaves assessed as insect mortality measured 24 hr post compound treatment by leaf-dip method
Format: functional
Please respond with class 1 when measured LC50 is strictly beneath 4 µM, and with class 0 in all other cases.

[[record]]
smilesrepr = "O=[N+]([O-])/C(=C\\c1ccc(Cl)o1)C1=NCCN1Cc1ccc(Cl)nc1"
target = "Aphis craccivora"
classname = "class 0"

[[record]]
smilesrepr = "Cl.O=[N+]([O-])/C(=C\\c1ccco1)C1=NCCN1Cc1ccc(Cl)nc1"
target = "Aphis craccivora"
classname = "class 1"

[[record]]
smilesrepr = "O=[N+]([O-])/C(=C\\c1ccc(Cl)o1)C1=NCCCN1Cc1ccc(Cl)nc1"
target = "Aphis craccivora"
classname = "class 0"

[[record]]
smilesrepr = "Cl.O=[N+]([O-])/C(=C\\c1cccs1)C1=NCCN1Cc1ccc(Cl)nc1"
target = "Aphis craccivora"
classname = "class 0"

[[record]]
smilesrepr = "O=[N+]([O-])/C(=C\\c1ccco1)C1=NCCN1Cc1cnc(Cl)s1"
target = "Aphis craccivora"
classname = "class 1"

[[record]]
smilesrepr = "Cc1ccc(/C=C(/C2=NCCN2Cc2ccc(Cl)nc2)[N+](=O)[O-])s1"
target = "Aphis craccivora"
classname = "class 1"

[[record]]
smilesrepr = "Cc1cc(/C=C(/C2=NCCN2Cc2ccc(Cl)nc2)[N+](=O)[O-])oc1C"
target = "Aphis craccivora"
classname = "class 0"

[[record]]
smilesrepr = "O=[N+]([O-])/C(=C\\c1ccoc1)C1=NCCN1Cc1ccc(Cl)nc1"
target = "Aphis craccivora"
classname = "class 0"

[[record]]
smilesrepr = "CCc1ccc(/C=C(/C2=NCCN2Cc2ccc(Cl)nc2)[N+](=O)[O-])o1"
target = "Aphis craccivora"
classname = "class 1"

[[record]]
smilesrepr = "O=[N+]([O-])/C(=C\\c1cccs1)C1=NCCCN1Cc1ccc(Cl)nc1"
target = "Aphis craccivora"
classname = "class 0"

